target.under.test: Free fatty acid receptor 1 (Rattus norvegicus, UniProt Q8K3T4)
Sequence (Q8K3T4 whole entry): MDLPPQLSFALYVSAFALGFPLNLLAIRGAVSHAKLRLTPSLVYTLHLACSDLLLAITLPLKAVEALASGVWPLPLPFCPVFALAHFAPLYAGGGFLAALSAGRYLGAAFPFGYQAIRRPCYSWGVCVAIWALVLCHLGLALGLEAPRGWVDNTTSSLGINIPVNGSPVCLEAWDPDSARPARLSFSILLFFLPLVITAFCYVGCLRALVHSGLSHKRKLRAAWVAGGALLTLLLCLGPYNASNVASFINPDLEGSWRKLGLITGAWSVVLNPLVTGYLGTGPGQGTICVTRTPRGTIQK
measurement.protocol: Agonist activity at rat FFA1 receptor
pEC50: −log10 of the molar value.

>  <chemical.smiles>
COc1ccc(C(F)(F)F)cc1COc1ccc(CCC(=O)O)cc1C

>  <pEC50>
< 4.52

$$$$

* * *

target.under.test: UniProt Q7TMA4
Sequence (Q7TMA4 whole entry): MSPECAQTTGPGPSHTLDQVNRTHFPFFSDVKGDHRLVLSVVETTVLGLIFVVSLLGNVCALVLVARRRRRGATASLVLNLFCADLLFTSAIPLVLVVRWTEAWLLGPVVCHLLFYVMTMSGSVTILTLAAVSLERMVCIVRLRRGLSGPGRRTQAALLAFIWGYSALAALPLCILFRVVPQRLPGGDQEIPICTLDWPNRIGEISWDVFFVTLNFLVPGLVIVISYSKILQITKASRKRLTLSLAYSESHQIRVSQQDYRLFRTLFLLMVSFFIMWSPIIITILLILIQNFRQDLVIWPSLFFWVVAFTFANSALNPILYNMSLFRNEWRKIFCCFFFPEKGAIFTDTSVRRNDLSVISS
measurement.protocol: Agonist activity at mouse FFA4 receptor

>  <chemical.smiles>
COc1ccc(C(F)(F)F)cc1COc1ccc(CCC(=O)O)cc1C

>  <target.under.test>
UniProt Q7TMA4

>  <unit.abbrev>
µM

>  <EC50>
0.07

$$$$

* * *

target.under.test: UniProtKB Q5NUL3
measurement.protocol: Agonist activity at human FFA4 receptor expressed in human U2OS cells co-expressing Galpha16 assessed as calcium mobilization by Fluo-4 dye based FLIPR assay relative to GSK137647A
Type: functional, cell-based

>  <chemical.smiles>
Cc1cc(CCC(=O)O)cc(C)c1OCc1ccccc1SC(F)(F)F

>  <%max / %>
102

$$$$
>  <chemical.smiles>
CC(C)Cc1cc(CCC(=O)O)ccc1OCc1ccccc1SC(F)(F)F

>  <%max / %>
161

$$$$
>  <chemical.smiles>
O=C(O)CCc1ccc(OCc2cccc(Oc3ccccc3)c2)cc1

>  <%max / %>
85

$$$$
>  <chemical.smiles>
Cc1ccc(Cl)c(COc2ccc(CCC(=O)O)cc2C)c1

>  <%max / %>
115

$$$$

* * *

Known %max of a selection of compounds
target.under.test: UniProt O14842
measurement.protocol: Agonist activity at human FFA1 receptor expressed in human U2OS cells co-expressing Galpha16 assessed as calcium mobilization by Fluo-4 dye based FLIPR assay relative to GSK137647A
Type: functional, cell-based

>  <chemical.smiles>
Cc1ccc(Cl)c(COc2ccc(CCC(=O)O)cc2C)c1

>  <%max / %>
243

$$$$
>  <chemical.smiles>
O=C(O)CCc1ccc(OCc2cccc(Oc3ccccc3)c2)cc1

>  <%max / %>
106

$$$$
>  <chemical.smiles>
Cc1cc(CCC(=O)O)cc(C)c1OCc1ccccc1SC(F)(F)F

>  <%max / %>
115

$$$$

* * *

log10(EC50) reference
target.under.test: Free fatty acid receptor 4 (Homo sapiens, UniProt Q5NUL3)
Sequence (Q5NUL3 whole entry): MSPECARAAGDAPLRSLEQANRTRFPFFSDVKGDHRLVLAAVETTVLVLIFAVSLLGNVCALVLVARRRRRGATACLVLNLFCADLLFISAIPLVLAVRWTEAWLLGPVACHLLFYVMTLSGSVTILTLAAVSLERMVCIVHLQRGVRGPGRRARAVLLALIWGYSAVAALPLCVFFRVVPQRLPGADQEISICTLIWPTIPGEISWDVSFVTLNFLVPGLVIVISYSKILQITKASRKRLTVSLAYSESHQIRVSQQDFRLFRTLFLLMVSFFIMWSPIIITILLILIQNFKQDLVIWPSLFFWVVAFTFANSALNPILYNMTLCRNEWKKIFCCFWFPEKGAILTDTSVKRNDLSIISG
measurement.protocol: Agonist activity at human FFA4 receptor expressed in human U2OS cells co-expressing Galpha16 assessed as calcium mobilization by Fluo-4 dye based FLIPR assay
measured.quantity: log10(EC50) (log10 of the value in nM)

>  <compound>
Cc1cc(COc2ccc(CCC(=O)O)cc2C)cc(Oc2ccccc2)c1

>  <measured.quantity>
log10(EC50)

>  <measured>
1.60

$$$$
>  <compound>
CC(CC(=O)O)c1ccc(OCc2ccccc2SC(F)(F)F)cc1 (configuration not stated)

>  <measured.quantity>
log10(EC50)

>  <measured>
4.06

$$$$
>  <compound>
Cc1cc(COc2ccc(CCC(=O)O)cc2C)cc(OC(C)C)c1

>  <measured.quantity>
log10(EC50)

>  <measured>
1.78

$$$$
>  <compound>
Cc1cc(CCC(=O)O)ccc1OCc1cccc(Cl)c1

>  <measured.quantity>
log10(EC50)

>  <measured>
2.56

$$$$
>  <compound>
Cc1cc(CCC(=O)O)ccc1OCc1cccc(Oc2ccccc2)c1

>  <measured.quantity>
log10(EC50)

>  <measured>
2.75

$$$$
>  <compound>
Cc1cc(CCC(=O)O)ccc1OCc1ccccc1SC(F)(F)F

>  <measured.quantity>
log10(EC50)

>  <measured>
2.30

$$$$

* * *

measurement.protocol: AUC in C57BL/6J mouse at 3 mg/kg, iv
Assay type: ADME, organism-based
condition.notes: in vivo
measured.quantity: AUC

>  <chemical.smiles>
Cc1ccc(Cl)c(COc2ccc(CCC(=O)O)cc2C)c1

>  <measured.quantity>
AUC

>  <measured>
2860 ng·h/mL

$$$$
>  <chemical.smiles>
Cc1cc(C)cc(COc2ccc(CCC(=O)O)cc2C)c1

>  <measured.quantity>
AUC

>  <measured>
1420 ng·h/mL

$$$$
>  <chemical.smiles>
Cc1cc(COc2ccc(CCC(=O)O)cc2C)cc(OC(C)C)c1

>  <measured.quantity>
AUC

>  <measured>
1170 ng·h/mL

$$$$
>  <chemical.smiles>
Cc1cccc(COc2ccc(CCC(=O)O)cc2C)c1

>  <measured.quantity>
AUC

>  <measured>
4100 ng·h/mL

$$$$

* * *

// reported EC50 per item
target.under.test: Free fatty acid receptor 1 (Homo sapiens, UniProt O14842)
Sequence (O14842 whole entry): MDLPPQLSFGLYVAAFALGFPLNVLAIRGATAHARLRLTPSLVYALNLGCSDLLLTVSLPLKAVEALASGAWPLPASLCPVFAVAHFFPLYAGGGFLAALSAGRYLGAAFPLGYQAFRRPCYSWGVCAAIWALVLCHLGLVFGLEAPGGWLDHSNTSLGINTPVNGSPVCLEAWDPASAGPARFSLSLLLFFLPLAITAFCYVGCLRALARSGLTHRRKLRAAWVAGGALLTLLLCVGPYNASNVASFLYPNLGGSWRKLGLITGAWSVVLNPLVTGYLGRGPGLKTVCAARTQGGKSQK
measurement.protocol: Agonist activity at human FFA1 receptor expressed in human U2OS cells co-expressing Galpha16 assessed as calcium mobilization by Fluo-4 dye based FLIPR assay
Format: functional, cell-based
condition.notes: read-out: EC50

>  <molecule>
Cc1cc(OCc2ccccc2SC(F)(F)F)ccc1CCC(=O)O

>  <censor.symbol>
=

>  <EC50 [µM]>
1.54

$$$$
>  <molecule>
CC(CC(=O)O)c1ccc(OCc2ccccc2SC(F)(F)F)cc1 (centres undefined)

>  <censor.symbol>
=

>  <EC50 [µM]>
13.1

$$$$
>  <molecule>
Cc1ccc(Cl)c(COc2ccc(CCC(=O)O)cc2C)c1

>  <censor.symbol>
=

>  <EC50 [µM]>
18.1

$$$$
>  <molecule>
O=C(O)CCc1ccc(OCc2ccccc2SC(F)(F)F)c(Cl)c1

>  <censor.symbol>
>

>  <EC50 [µM]>
10

$$$$

* * *

target.under.test: Free fatty acid receptor 4 (Rattus norvegicus)
Sequence (Q2AC31 whole entry): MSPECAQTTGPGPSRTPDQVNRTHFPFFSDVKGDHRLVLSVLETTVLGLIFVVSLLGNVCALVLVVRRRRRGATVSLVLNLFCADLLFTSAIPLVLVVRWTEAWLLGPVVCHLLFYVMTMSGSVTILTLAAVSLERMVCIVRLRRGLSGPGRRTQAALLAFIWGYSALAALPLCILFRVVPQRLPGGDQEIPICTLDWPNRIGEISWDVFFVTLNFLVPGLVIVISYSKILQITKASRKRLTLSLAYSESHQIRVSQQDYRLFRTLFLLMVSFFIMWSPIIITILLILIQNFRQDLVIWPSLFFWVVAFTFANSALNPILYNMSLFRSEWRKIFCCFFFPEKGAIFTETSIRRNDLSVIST
measurement.protocol: Agonist activity at rat FFA4 receptor
measured.quantity: EC50 (nM)

>  <chemical.smiles>
COc1ccc(C(F)(F)F)cc1COc1ccc(CCC(=O)O)cc1C

>  <unit.abbrev>
nM

>  <measured>
230

$$$$

* * *

# EC50 per entry
target.under.test: Free fatty acid receptor 4 (Homo sapiens)
measurement.protocol: Agonist activity at human FFA4 receptor expressed in human U2OS cells co-expressing Galpha16 assessed as calcium mobilization by Fluo-4 dye based FLIPR assay
measured.quantity: EC50 (nM)

>  <chemical.smiles>
Cc1cc(CCC(=O)O)ccc1OCc1cc(C(F)(F)F)ccc1O

>  <measured>
10000

$$$$
>  <chemical.smiles>
O=C(O)CCc1ccc(OCc2ccccc2SC(F)(F)F)c(Cl)c1

>  <measured>
108

$$$$
>  <chemical.smiles>
Cc1ccc(Cl)c(COc2ccc(CCC(=O)O)cc2C)c1

>  <measured>
188

$$$$
>  <chemical.smiles>
Cc1c(CCC(=O)O)ccc(OCc2ccccc2SC(F)(F)F)c1C

>  <measured>
304

$$$$
>  <chemical.smiles>
Cc1cc(CCC(=O)O)ccc1OCc1ccccc1Cl

>  <measured>
972

$$$$
>  <chemical.smiles>
O=C(O)CCc1ccc(OCc2ccccc2SC(F)(F)F)c(CO)c1

>  <measured>
5910

$$$$
>  <chemical.smiles>
Cc1cc(CCC(=O)O)ccc1OCc1ccccc1Br

>  <measured>
236

$$$$
>  <chemical.smiles>
Cc1cc(CCC(=O)O)cc(C)c1OCc1ccccc1SC(F)(F)F

>  <measured>
660

$$$$
>  <chemical.smiles>
Cc1cc(CCC(=O)O)ccc1OCc1ccccc1OC(C)C

>  <measured>
271

$$$$
>  <chemical.smiles>
COc1ccc(C(F)(F)F)cc1COc1ccc(CCC(=O)O)cc1C

>  <measured>
299

$$$$
>  <chemical.smiles>
O=C(O)CCc1ccc(OCc2cccc(Oc3ccccc3)c2)cc1

>  <measured>
968

$$$$
>  <chemical.smiles>
O=C(O)CCc1ccc(OCc2ccccc2SC(F)(F)F)c2ccccc12

>  <measured>
2290

$$$$
>  <chemical.smiles>
CC(C)Cc1cc(CCC(=O)O)ccc1OCc1ccccc1SC(F)(F)F

>  <measured>
9660

$$$$
>  <chemical.smiles>
O=C(O)CCc1ccc(OCc2ccccc2SC(F)(F)F)cc1

>  <measured>
681

$$$$
>  <chemical.smiles>
Cc1ccc(Br)c(COc2ccc(CCC(=O)O)cc2C)c1

>  <measured>
53

$$$$
>  <chemical.smiles>
Cc1cc(CCC(=O)O)ccc1OCc1cccc(C(F)(F)F)c1

>  <measured>
898

$$$$
>  <chemical.smiles>
Cc1cc(OCc2ccccc2SC(F)(F)F)ccc1CCC(=O)O

>  <measured>
722

$$$$
>  <chemical.smiles>
COc1cc(CCC(=O)O)ccc1OCc1ccccc1SC(F)(F)F

>  <measured>
1990

$$$$
>  <chemical.smiles>
Cc1ccc(OC(C)C)c(COc2ccc(CCC(=O)O)cc2C)c1

>  <measured>
172

$$$$
>  <chemical.smiles>
O=C(O)COc1ccc(OCc2ccccc2SC(F)(F)F)cc1

>  <measured>
9980

$$$$
>  <chemical.smiles>
Cc1cc(C)cc(COc2ccc(CCC(=O)O)cc2C)c1

>  <measured>
60

$$$$
>  <chemical.smiles>
Cc1cc(CCC(=O)O)ccc1OCc1ccccc1

>  <measured>
750

$$$$
>  <chemical.smiles>
Cc1cccc(COc2ccc(CCC(=O)O)cc2C)c1

>  <measured>
275

$$$$
>  <chemical.smiles>
Cc1cc(CCC(=O)O)ccc1OCc1ccccc1C(F)(F)F

>  <measured>
531

$$$$
